UniProt P35408 Ki, compiled from various sources.
MEASURED_METRIC: Ki (µM)

Some compounds with recorded Ki:
>>> val("O=C(O)CCC/C=C\\C[C@@H]1[C@@H](CSc2cc(Cl)cc(Cl)c2)[C@H](O)C[C@H]1Cl")
0.376
>>> val("CCCCc1cnc2c(C(=O)Nc3cccc(OCC(=O)O)c3)cccc2c1")
2.06

(A) C[C@H](NC(=O)c1cscc1Cc1cccc(Cl)c1)c1ccc(C(=O)O)cc1
(B) COc1cc(CC2=C(C(=O)NCc3ccc(C(=O)O)cc3)CCC2)cc(OC)c1
(C) Cc1sc(C)c(C(=O)NCc2ccc(C(=O)O)c(Cl)c2)c1Cc1cccc(Cl)c1
Req: Hey, quick one: sort these by Ki, low to high? Submit the labels in the order that the ranking request calls for.
Resp: B, A, C
(B: 0.005 µM, A: 0.0079 µM, C: 0.03 µM)
